molecular target: UniProt:P10275
Sequence (P10275 609-919): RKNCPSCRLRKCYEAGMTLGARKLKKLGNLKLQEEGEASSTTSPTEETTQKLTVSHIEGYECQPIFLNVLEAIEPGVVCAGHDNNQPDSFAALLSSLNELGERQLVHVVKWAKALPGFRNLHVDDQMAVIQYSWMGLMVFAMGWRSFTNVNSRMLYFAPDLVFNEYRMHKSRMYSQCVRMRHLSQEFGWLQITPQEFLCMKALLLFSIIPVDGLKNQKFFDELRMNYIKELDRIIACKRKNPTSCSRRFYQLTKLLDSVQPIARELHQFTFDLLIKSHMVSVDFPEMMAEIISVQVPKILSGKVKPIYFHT
endpoint: pIC50
Quick note: pIC50 means taking -log10 of the concentration in moles per liter.

Exercise: Which pIC50 value is on record for Cc1c(-c2ccc(NC(=O)C(C)(C)C)cc2)nc2ccc(Cl)cn12 ?
Key: 4.10

Measured values drawn from paper PMC2685987 for this set.
